MIC values by entry
system: Methicillin-resistant Staphylococcus aureus OC 2878; assay: MIC, microdilution broth method (NCCLS), strain D; conditions: read-out: MIC D Strain
Return type: number; implicit unit µg/mL.

* CO[C@H]1/C=C/O[C@@]2(C)Oc3c(C)c(O)c4c(O)c(c([C@H](O)C[N+](=O)[O-])c(O)c4c3C2=O)NC(=O)/C(C)=C\C=C\[C@H](C)[C@H](O)[C@@H](C)[C@@H](O)[C@@H](C)[C@H](OC(C)=O)[C@@H]1C (single isomer, unassigned) | 8

If you can, please state the reported MIC value of CO[C@H]1/C=C/O[C@@]2(C)Oc3c(C)c(O)c4c(O)c(c(CCN(C)C)c(O)c4c3C2=O)NC(=O)/C(C)=C\C=C\[C@H](C)[C@H](O)[C@@H](C)[C@@H](O)[C@@H](C)[C@H](OC(C)=O)[C@@H]1C .
0.06

###

test system: Staphylococcus aureus OC4172; test: MIC, microdilution broth method (NCCLS), strain C; format: cell-based; conditions: cation adjusted Mueller-Hinton broth, 35° C., 16-20 hours
MIC values by entry

The cases that follow already have their MIC on record.
• CO[C@H]1/C=C/O[C@@]2(C)Oc3c(C)c(O)c4c(O)c(c(CCN(C)C)c(O)c4c3C2=O)NC(=O)/C(C)=C\C=C\[C@H](C)[C@H](O)[C@@H](C)[C@@H](O)[C@@H](C)[C@H](OC(C)=O)[C@@H]1C = ≤ 0.03 µg/mL
• CO[C@H]1/C=C/O[C@@]2(C)Oc3c(C)c(O)c4c(O)c(c(CCNCc5ccc(-n6cccn6)cc5)c(O)c4c3C2=O)NC(=O)/C(C)=C\C=C\[C@H](C)[C@H](O)[C@@H](C)[C@@H](O)[C@@H](C)[C@H](OC(C)=O)[C@@H]1C = 0.12 µg/mL
• CO[C@H]1/C=C/O[C@@]2(C)Oc3c(C)c(O)c4c(O)c(c(C(CN)CN)c(O)c4c3C2=O)NC(=O)/C(C)=C\C=C\[C@H](C)[C@H](O)[C@@H](C)[C@@H](O)[C@@H](C)[C@H](OC(C)=O)[C@@H]1C = 0.25 µg/mL
• CO[C@H]1/C=C/O[C@@]2(C)Oc3c(C)c(O)c4c(O)c(c(CCNCc5ccccc5)c(O)c4c3C2=O)NC(=O)/C(C)=C\C=C\[C@H](C)[C@H](O)[C@@H](C)[C@@H](O)[C@@H](C)[C@H](OC(C)=O)[C@@H]1C = ≤ 0.03 µg/mL
• CO[C@H]1/C=C/O[C@@]2(C)Oc3c(C)c(O)c4c(O)c(c(CC[N+](=O)[O-])c(O)c4c3C2=O)NC(=O)/C(C)=C\C=C\[C@H](C)[C@H](O)[C@@H](C)[C@@H](O)[C@@H](C)[C@H](OC(C)=O)[C@@H]1C = ≤ 0.03 µg/mL
• CO[C@H]1/C=C/O[C@@]2(C)Oc3c(C)c(O)c4c(O)c(c(CCNCc5ccc(-c6ncccn6)cc5)c(O)c4c3C2=O)NC(=O)/C(C)=C\C=C\[C@H](C)[C@H](O)[C@@H](C)[C@@H](O)[C@@H](C)[C@H](OC(C)=O)[C@@H]1C = 0.5 µg/mL

Continue with the compound presented below.
If you can, please state the reported MIC value of CO[C@H]1/C=C/O[C@@]2(C)Oc3c(C)c(O)c4c(O)c(c([C@H](O)C[N+](=O)[O-])c(O)c4c3C2=O)NC(=O)/C(C)=C\C=C\[C@H](C)[C@H](O)[C@@H](C)[C@@H](O)[C@@H](C)[C@H](OC(C)=O)[C@@H]1C (single isomer, unassigned) .
8 µg/mL

###

system: Staphylococcus aureus OC4172; assay: MIC, microdilution broth method (NCCLS), strain C; type: cell-based; conditions: cation adjusted Mueller-Hinton broth, 35° C., 16-20 hours
MIC values by entry

- CO[C@H]1/C=C/O[C@@]2(C)Oc3c(C)c(O)c4c(O)c(c(CCNCc5ccc(N6CCN(C)CC6)cc5)c(O)c4c3C2=O)NC(=O)/C(C)=C\C=C\[C@H](C)[C@H](O)[C@@H](C)[C@@H](O)[C@@H](C)[C@H](OC(C)=O)[C@@H]1C [Compound 12]: ≤ 0.03 mg/L
- CO[C@H]1/C=C/O[C@@]2(C)Oc3c(C)c(O)c4c(c3C2=O)C(=O)C(CC[N+](=O)[O-])=C(NC(=O)/C(C)=C\C=C\[C@H](C)[C@H](O)[C@@H](C)[C@@H](O)[C@@H](C)[C@H](OC(C)=O)[C@@H]1C)C4=O [Compound 1]: ≤ 0.03 mg/L
- CO[C@H]1/C=C/O[C@@]2(C)Oc3c(C)c(O)c4c(O)c(c(CCN5CCCCC5)c(O)c4c3C2=O)NC(=O)/C(C)=C\C=C\[C@H](C)[C@H](O)[C@@H](C)[C@@H](O)[C@@H](C)[C@H](OC(C)=O)[C@@H]1C [Compound 11]: ≤ 0.03 mg/L

Continue with the molecule presented below.
If you can, please state the reported MIC value of CO[C@H]1/C=C/O[C@@]2(C)Oc3c(C)c(O)c4c(O)c(c(C(C[N+](=O)[O-])C[N+](=O)[O-])c(O)c4c3C2=O)NC(=O)/C(C)=C\C=C\[C@H](C)[C@H](O)[C@@H](C)[C@@H](O)[C@@H](C)[C@H](OC(C)=O)[C@@H]1C [Compound 3] .
0.25 mg/L

###

MIC values by entry
test system: Methicillin-resistant Staphylococcus aureus OC 2878; experiment: MIC, microdilution broth method (NCCLS), strain D; details: read-out: MIC D Strain

The cases that follow already have their MIC on record.
- CO[C@H]1/C=C/O[C@@]2(C)Oc3c(C)c(O)c4c(O)c(c(CCNCc5ccc(N6CCN(C)CC6)cc5)c(O)c4c3C2=O)NC(=O)/C(C)=C\C=C\[C@H](C)[C@H](O)[C@@H](C)[C@@H](O)[C@@H](C)[C@H](OC(C)=O)[C@@H]1C: ≤ 0.03 µg/mL
- CO[C@H]1/C=C/O[C@@]2(C)Oc3c(C)c(O)c4c(c3C2=O)C(=O)C(CC[N+](=O)[O-])=C(NC(=O)/C(C)=C\C=C\[C@H](C)[C@H](O)[C@@H](C)[C@@H](O)[C@@H](C)[C@H](OC(C)=O)[C@@H]1C)C4=O: ≤ 0.03 µg/mL
- CO[C@H]1/C=C/O[C@@]2(C)Oc3c(C)c(O)c4c(O)c(c(CC[N+](=O)[O-])c(O)c4c3C2=O)NC(=O)/C(C)=C\C=C\[C@H](C)[C@H](O)[C@@H](C)[C@@H](O)[C@@H](C)[C@H](OC(C)=O)[C@@H]1C: ≤ 0.03 µg/mL

If you can, please state the reported MIC value of CO[C@H]1/C=C/O[C@@]2(C)Oc3c(C)c(O)c4c(O)c(c(C(CN)CN)c(O)c4c3C2=O)NC(=O)/C(C)=C\C=C\[C@H](C)[C@H](O)[C@@H](C)[C@@H](O)[C@@H](C)[C@H](OC(C)=O)[C@@H]1C .
1 µg/mL

###

MIC values by entry
test system: Staphylococcus aureus OC4172; assay: MIC, microdilution broth method (NCCLS), strain C; type: cell-based; conditions: cation adjusted Mueller-Hinton broth, 35° C., 16-20 hours
Return type: number; implicit unit µg/mL.

- CO[C@H]1/C=C/O[C@@]2(C)Oc3c(C)c(O)c4c(c3C2=O)C(=O)C(C(C[N+](=O)[O-])C[N+](=O)[O-])=C(NC(=O)/C(C)=C\C=C\[C@H](C)[C@H](O)[C@@H](C)[C@@H](O)[C@@H](C)[C@H](OC(C)=O)[C@@H]1C)C4=O: 0.5

Continue with the compound presented below.
Give recorded MIC with Staphylococcus aureus OC4172 for the following compound: CO[C@H]1/C=C/O[C@@]2(C)Oc3c(C)c(O)c4c(O)c(c(CCNCc5ccc(-c6cccnn6)cc5)c(O)c4c3C2=O)NC(=O)/C(C)=C\C=C\[C@H](C)[C@H](O)[C@@H](C)[C@@H](O)[C@@H](C)[C@H](OC(C)=O)[C@@H]1C
0.25

###

MIC values by entry
system: Methicillin-resistant Staphylococcus aureus OC 2878; assay: MIC, microdilution broth method (NCCLS), strain D; settings: read-out: MIC D Strain
Return type: number; implicit unit µg/mL.

The cases that follow already have their MIC on record.
• CO[C@H]1/C=C/O[C@@]2(C)Oc3c(C)c(O)c4c(O)c(c(CCNCc5ccc(-c6cccnn6)cc5)c(O)c4c3C2=O)NC(=O)/C(C)=C\C=C\[C@H](C)[C@H](O)[C@@H](C)[C@@H](O)[C@@H](C)[C@H](OC(C)=O)[C@@H]1C [Compound 15] = 0.25
• CO[C@H]1/C=C/O[C@@]2(C)Oc3c(C)c(O)c4c(O)c(c(CCN5CCCCC5)c(O)c4c3C2=O)NC(=O)/C(C)=C\C=C\[C@H](C)[C@H](O)[C@@H](C)[C@@H](O)[C@@H](C)[C@H](OC(C)=O)[C@@H]1C [Compound 11] = 0.06
• CO[C@H]1/C=C/O[C@@]2(C)Oc3c(C)c(O)c4c(O)c(c(CCNCc5ccc(-c6ncccn6)cc5)c(O)c4c3C2=O)NC(=O)/C(C)=C\C=C\[C@H](C)[C@H](O)[C@@H](C)[C@@H](O)[C@@H](C)[C@H](OC(C)=O)[C@@H]1C [Compound 14] = 0.5
• CO[C@H]1/C=C/O[C@@]2(C)Oc3c(C)c(O)c4c(c3C2=O)C(=O)C(C(C[N+](=O)[O-])C[N+](=O)[O-])=C(NC(=O)/C(C)=C\C=C\[C@H](C)[C@H](O)[C@@H](C)[C@@H](O)[C@@H](C)[C@H](OC(C)=O)[C@@H]1C)C4=O [Compound 4] = 0.5
• CO[C@H]1/C=C/O[C@@]2(C)Oc3c(C)c(O)c4c(O)c(c(C(C[N+](=O)[O-])C[N+](=O)[O-])c(O)c4c3C2=O)NC(=O)/C(C)=C\C=C\[C@H](C)[C@H](O)[C@@H](C)[C@@H](O)[C@@H](C)[C@H](OC(C)=O)[C@@H]1C [Compound 3] = 0.25

Continue with the molecule presented below.
Give recorded MIC with Methicillin-resistant Staphylococcus aureus OC 2878 for the following molecule: CO[C@H]1/C=C/O[C@@]2(C)Oc3c(C)c(O)c4c(O)c(c(CCNCc5ccc(-n6cccn6)cc5)c(O)c4c3C2=O)NC(=O)/C(C)=C\C=C\[C@H](C)[C@H](O)[C@@H](C)[C@@H](O)[C@@H](C)[C@H](OC(C)=O)[C@@H]1C [Compound 13]
0.12
